Tested on: KAIMRC1 (Breast)
TEST_NAME: MTT cell proliferation assay, KAIMRC1
Type: cell-based, human
CONDITION_INFO: Homo sapiens; MTT, 48 h treatment, medium with 10% FBS; read-out: IC50 μM KAIMRC1 (Breast)
In plain terms, low IC50, meaning strictly below 7 µM, gives rule met, and everything else gives rule not met.

1) CCC1(C)OC(=O)C(=CC=Cc2cncc3ccccc23)C(=O)O1 (centres unmarked) [Example 12]
rule met
2) O=C1OC2(CCC2)OC(=O)C1=CC=Cc1cncc2ccccc12 [Example 16]
rule not met
3) CCC1(C)OC(=O)C(=CC=Cc2cccc3ccccc23)C(=O)O1 (centres unmarked) [Example 19]
rule met
4) CCC1(C)OC(=O)C(=C/C=C/c2ccncc2)C(=O)O1 (centres unmarked) [Example 9]
rule not met

Exam item: Please indicate whether the reported IC50 of CCC1(C)OC(=O)C(=CC=Cc2ccnc3ccccc23)C(=O)O1 (centres unmarked) [Example 13] is strictly below 7 µM.
Marked response: rule not met

Exam item: Quick check: does CCCC1(C)OC(=O)C(=CC=Cc2ccnc3ccccc23)C(=O)O1 (centres unmarked) [Example 14] have IC50 under 7 µM?
Marked response: rule not met

Exam item: hey, is IC50 for O=C1OC2(CCCCC2)OC(=O)C1=CC=Cc1ccnc2ccccc12 [Example 17] lower than 7 µM or not?
Marked response: rule not met

Exam item: Does this compound meet the criterion IC50 < 7 µM? CC1(C)OC(=O)C(=CC=Cc2ccnc3ccccc23)C(=O)O1 [Example 11]
Marked response: rule not met
